Numbers sourced from patent US20010044445A1.

OUTCOME_MEASURE: melting point

Example cases with answers are listed next.
Which value of melting point has been reported for CS(=O)(=O)c1ccc(C(=O)Nc2ccc(-n3nc(C(F)(F)F)cc3C(F)(F)F)cc2)c(Cl)c1 in the records?
219 to 220 °C

How about this compound: Cc1c(C(=O)Nc2ccc(-n3nc(C(F)(F)F)cc3C(F)(F)F)cc2)cccc1[N+](=O)[O-]
194 to 195 °C

How about this compound: Cn1ncc(C(=O)Nc2ccc(-n3nc(C(F)(F)F)cc3C(F)(F)F)cc2)c1[N+](=O)[O-]
214 to 216 °C

How about this compound: Cc1noc(C)c1C(=O)Nc1ccc(-n2nccc2C)cc1
151 to 152 °C

Continuing:
Which value of melting point has been reported for O=C(Nc1ccc(-n2nc(C(F)(F)F)cc2C(F)(F)F)cc1)c1c(F)ccc([N+](=O)[O-])c1F in the records?
187 to 189 °C

How about this compound: O=C(Nc1ccc(-n2nc(C(F)(F)F)cc2C(F)(F)F)cc1)c1ccc(Cl)nc1Cl
115 to 117 °C

* * *

Listed here are compounds together with their documented melting point.

Example cases with answers are listed next.
Which value of melting point has been reported for O=C(Nc1ccc(-n2nc(C(F)(F)F)cc2C(F)(F)F)cc1)C1CC=CCC1 (centres unmarked) in the records?
177 to 178 °C

How about this compound: O=C(Nc1ccc(-n2nc(C(F)(F)F)cc2C(F)(F)F)cc1)C1CC1c1ccccc1 (centres unmarked)
176 to 178 °C

How about this compound: O=C(Nc1ccc(-n2nc(C(F)(F)F)cc2C(F)(F)F)cc1)c1cccc(F)c1
148 to 151 °C

Continuing:
Which value of melting point has been reported for O=C(/C=C/c1ccccc1Cl)Nc1ccc(-n2nc(C(F)(F)F)cc2C(F)(F)F)cc1 in the records?
173 to 175 °C

How about this compound: N#Cc1cccc(C(=O)Nc2ccc(-n3nc(C(F)(F)F)cc3C(F)(F)F)nc2)c1
206 to 208 °C

How about this compound: O=C(Nc1ccc(-n2nc(C(F)(F)F)cc2C(F)(F)F)cc1)c1ccsc1
239 to 240 °C

How about this compound: COc1cccc(C(=O)Nc2ccc(-n3nc(C(F)(F)F)cc3C(F)(F)F)cc2)c1
169 to 172 °C

How about this compound: O=C(Nc1ccc(-n2nc(C(F)(F)F)cc2C(F)(F)F)cc1F)c1ccc(F)cc1F
66 to 67 °C

* * *

Test system: Human peripheral blood mononuclear cells
MEASUREMENT_PROTOCOL: Human Concanavalin-A Proliferation Assay (Con HU Assay)
Assay type: cell-based
MEASUREMENT_SETUP: Homo sapiens, PBMC, 72 h, concentration 100 μm (in parentheses in the cell); concanavalin-A stimulated human PBMC, 3 days; read-out: % Inhibition of proliferation (at concentrations of 1,10, or 100 μm)
Listed here are molecules together with their documented inhibition at 100 µM.
Kindly answer with a numeric value in %, unit omitted.

Example cases with answers are listed next.
Which value of inhibition at 100 µM has been reported for O=C(Nc1ccc(-n2nc(C(F)(F)F)cc2C(F)(F)F)cc1)c1ccccn1 [Example 121] in the records?
53

How about this molecule: N#Cc1cccc(NC(=O)Nc2ccc(-n3nc(C(F)(F)F)cc3C(F)(F)F)cc2)c1 [Example 16]
100

How about this molecule: Cc1cc(C)c(C(=O)Nc2ccc(-n3nc(C(F)(F)F)cc3C(F)(F)F)cc2)c(C)c1 [Example 78]
95

Continuing:
Which value of inhibition at 100 µM has been reported for Cc1cccc(C(=O)Nc2ccc(-n3nc(C(F)(F)F)cc3C(F)(F)F)cc2)c1 [Example 75] in the records?
100

How about this molecule: O=C(Nc1ccc(-n2nc(C(F)(F)F)cc2C(F)(F)F)cc1)c1cccc(Cl)c1 [Example 130]
100

How about this molecule: O=C(Nc1ccc(-n2nc(C(F)(F)F)cc2C(F)(F)F)cc1)c1ccc(F)cc1 [Example 90]
98
